Catalogue of MDA tox: 50% tox. at (μM) av readings, one per entry.
- Test system: MDA-MB231-luc-D3H2LN cells
- assay: Toxicity assay under normal cell culture conditions (MTS), MDA cells
- Type: cell-based, human
- testSettings: MDA-MB231-luc-D3H2LN cells, MEM+10% FBS, 72 h incubation, MTS

O=C(NCCCN1CCCC1)c1cccc(Nc2cccc(C(=O)Nc3ccncc3)c2)c1; 54 µM

Ask: Looking for the measured MDA tox: 50% tox. at (μM) av of CCN(CC)CCCNC(=O)c1ccnc(Nc2cc(C(=O)Nc3ccncc3)ccn2)c1 , can you help?
Result: >100 µM

Ask: Record: CN1CCN(CCCNC(=O)c2cccc(Nc3cccc(C(=O)Nc4ccncn4)c3)c2)CC1
Result: 95 µM

====

- targetDesc: hERG channel (Homo sapiens)
- Construct: host or cells: HEK293
- Sequence (Q12809 whole entry): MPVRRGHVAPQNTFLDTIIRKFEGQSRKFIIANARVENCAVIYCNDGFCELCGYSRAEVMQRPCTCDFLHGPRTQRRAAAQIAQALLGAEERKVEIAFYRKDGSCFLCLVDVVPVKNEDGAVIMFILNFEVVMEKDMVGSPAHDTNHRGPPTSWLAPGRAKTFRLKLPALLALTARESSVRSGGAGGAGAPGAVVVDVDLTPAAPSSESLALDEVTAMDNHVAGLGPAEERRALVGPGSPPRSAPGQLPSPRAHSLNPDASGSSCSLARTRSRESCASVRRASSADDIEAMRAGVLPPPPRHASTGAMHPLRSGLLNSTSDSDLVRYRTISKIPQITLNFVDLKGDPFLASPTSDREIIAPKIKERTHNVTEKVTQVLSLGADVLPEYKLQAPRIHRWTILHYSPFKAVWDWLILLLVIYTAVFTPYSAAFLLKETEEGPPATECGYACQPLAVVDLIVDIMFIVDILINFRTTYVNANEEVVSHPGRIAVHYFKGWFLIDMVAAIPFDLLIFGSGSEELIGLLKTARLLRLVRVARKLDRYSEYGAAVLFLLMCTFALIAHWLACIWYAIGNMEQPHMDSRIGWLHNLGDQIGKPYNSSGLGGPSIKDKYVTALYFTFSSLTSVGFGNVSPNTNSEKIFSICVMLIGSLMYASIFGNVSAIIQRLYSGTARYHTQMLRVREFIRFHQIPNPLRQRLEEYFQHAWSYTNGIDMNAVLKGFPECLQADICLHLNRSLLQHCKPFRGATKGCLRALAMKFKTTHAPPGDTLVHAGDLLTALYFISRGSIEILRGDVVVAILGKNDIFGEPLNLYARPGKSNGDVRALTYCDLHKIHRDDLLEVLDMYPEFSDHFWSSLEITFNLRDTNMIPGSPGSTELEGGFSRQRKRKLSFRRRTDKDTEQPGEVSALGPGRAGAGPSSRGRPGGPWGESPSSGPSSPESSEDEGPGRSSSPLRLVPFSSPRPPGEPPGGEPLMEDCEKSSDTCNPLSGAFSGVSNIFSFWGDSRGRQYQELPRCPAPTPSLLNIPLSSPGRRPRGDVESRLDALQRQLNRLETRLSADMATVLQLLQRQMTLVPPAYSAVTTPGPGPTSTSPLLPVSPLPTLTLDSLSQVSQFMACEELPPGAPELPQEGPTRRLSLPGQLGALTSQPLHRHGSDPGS
- assay: hERG channel inhibition (electrophysiology, hERG-transfected HEK293 cells)
- Assay type: cell-based
- testSettings: 1 μM compound
% hERG inhibition in transfected HEK (n = 3) at 1 μM av below 40% gives n; % hERG inhibition in transfected HEK (n = 3) at 1 μM av at or above it gives y.

CCN(CC)CCCNC(=O)c1cccc(Nc2cccc(C(=O)Nc3ccccn3)c2)c1; y
CCN(CC)CCCNC(=O)c1ccnc(Nc2cccc(C(=O)Nc3ccncn3)c2)c1; n
O=C(NCCCN1CCOCC1)c1cccc(Nc2cccc(C(=O)Nc3ccncc3)c2)c1; n
CCN(CC)CCCNC(=O)c1cccc(Nc2cccc(/C=C/c3ccncc3)c2)c1 [Compound C88, reference compound]; y
O=C(NCCCN1CCCC1)c1cccc(Nc2cccc(C(=O)Nc3ccncc3)c2)c1; n
O=C(NCCCN1CCCC1)c1cccc(Nc2cccc(/C=C/c3ccncc3)c2)c1 [Compound 585, reference compound]; y
O=C(NCCCN1CCOCC1)c1cccc(Nc2cccc(/C=C/c3ccncc3)c2)c1 [Compound 583, reference compound]; n

Now let's try a different one.
Ask: Please tell me: is the molecule CCN(CC)CCCNC(=O)c1cccc(Nc2cccc(C(=O)Nc3ccncc3)c2)c1 at or over 40% in terms of % hERG inhibition in transfected HEK (n = 3) at 1 μM av?
Result: n

====

- System: MDA-MB231-luc-D3H2LN cells
- assay: Toxicity assay under normal cell culture conditions (MTS), MDA cells
- Format: cell-based, human
- testSettings: MDA-MB231-luc-D3H2LN cells, MEM+10% FBS, 72 h incubation, MTS
Catalogue of MDA tox: 50% tox. at (μM) av readings, one per entry.
Record the value in µM, omitting the unit from your answer.

O=C(Nc1ccncn1)c1cccc(Nc2cccc(S(=O)(=O)NCCCN3CCCCC3)c2)c1; 66

// switching to the query compound
Ask: What value of MDA tox: 50% tox. at (μM) av has been recorded for this entry: CCN(CC)CCCNS(=O)(=O)c1cccc(Nc2cccc(C(=O)Nc3ccncc3)c2)c1
Result: 68

====

- targetDesc: hERG channel (Homo sapiens)
- Construct: host or cells: HEK293
- assay: hERG channel inhibition (electrophysiology, hERG-transfected HEK293 cells)
- Format: cell-based
- testSettings: 10 μM compound
The compounds listed here are annotated with their % hERG inhibition in transfected HEK (n = 3) at 10 μM av.
Write down the numeric answer in % and omit the unit.

Please review the following examples before continuing.
O=C(Nc1ccncc1)c1cccc(Nc2cccc(S(=O)(=O)NCCCN3CCCCC3)c2)c1; 50
O=C(Nc1ccncc1)c1cccc(Nc2cccc(S(=O)(=O)NCCCN3CCOCC3)c2)c1; 55

Ask: Which % hERG inhibition in transfected HEK (n = 3) at 10 μM av reading was recorded for the compound CCN(CC)CCCNC(=O)c1ccnc(Nc2cccc(C(=O)Nc3ccncn3)c2)c1 ?
Result: 53

Ask: Again, but for CCN(CC)CCCNC(=O)c1cccc(Nc2cccc(C(=O)Nc3ccccn3)c2)c1
Result: 87

Ask: Another compound to look at: CCN(CC)CCCNC(=O)c1cccc(Nc2cccc(C(=O)Nc3ccncn3)c2)n1
Result: 59

Origin of measurements: patent US9969715B2
